System: HCT-116
Assay Name: Cytotoxicity against human HCT116 cells after 2 days by sulforhodamine B assay
Type: functional
Settings: HCT-116, 48 h
Listing of entries alongside the reported GI50.
Quantity Measured: GI50

>  <Line Notation>
CC/C(=C(/c1ccc(OCCN(C)C)cc1)c1ccc(OC(=O)CCCCCCCCC(=O)C2=C(C)/C(=C/c3[nH]c(-c4ccc[nH]4)cc3OC)N=C2C)cc1)c1ccccc1

>  <Quantity Measured>
GI50

>  <Result>
3390 nM

$$$$
>  <Line Notation>
CCC(=C(c1ccc(OCCN(C)C)cc1)c1ccc(OC(=O)CCCCC(=O)C2=C(C)/C(=C/c3[nH]c(-c4ccc[nH]4)cc3OC)N=C2C)cc1)c1ccccc1

>  <Quantity Measured>
GI50

>  <Result>
3550 nM

$$$$
>  <Line Notation>
CC/C(=C(/c1ccc(OCCN(C)C)cc1)c1ccc(OC(=O)CCC(=O)C2=C(C)/C(=C/c3[nH]c(-c4ccc[nH]4)cc3OC)N=C2C)cc1)c1ccccc1

>  <Quantity Measured>
GI50

>  <Result>
820 nM

$$$$
>  <Line Notation>
COc1cc(-c2ccc[nH]2)[nH]c1/C=C1\N=C(C)C(C(=O)CCC(=O)Oc2ccc3c(c2)CC[C@@H]2[C@@H]3CC[C@]3(C)C(=O)CC[C@@H]23)=C1C

>  <Quantity Measured>
GI50

>  <Result>
800 nM

$$$$

* * *

Test system: K562
Assay Name: Cytotoxicity against human K562 cells after 2 days by sulforhodamine B assay
Type: functional
Settings: K562, 48 h
Listing of entries alongside the reported GI50.

>  <Line Notation>
CC/C(=C(/c1ccc(OCCN(C)C)cc1)c1ccc(OC(=O)CCCCCCCCC(=O)C2=C(C)/C(=C/c3[nH]c(-c4ccc[nH]4)cc3OC)N=C2C)cc1)c1ccccc1

>  <GI50 (µM)>
4.57

$$$$
>  <Line Notation>
CC/C(=C(/c1ccc(OCCN(C)C)cc1)c1ccc(OC(=O)CCC(=O)C2=C(C)/C(=C/c3[nH]c(-c4ccc[nH]4)cc3OC)N=C2C)cc1)c1ccccc1

>  <GI50 (µM)>
2.39

$$$$
>  <Line Notation>
CCC(=C(c1ccc(OCCN(C)C)cc1)c1ccc(OC(=O)CCCCC(=O)C2=C(C)/C(=C/c3[nH]c(-c4ccc[nH]4)cc3OC)N=C2C)cc1)c1ccccc1

>  <GI50 (µM)>
3.16

$$$$
>  <Line Notation>
COc1cc(-c2ccc[nH]2)[nH]c1/C=C1\N=C(C)C(C(=O)CCC(=O)Oc2ccc3c(c2)CC[C@@H]2[C@@H]3CC[C@]3(C)C(=O)CC[C@@H]23)=C1C

>  <GI50 (µM)>
4.23

$$$$

* * *

System: MOLT-4
Assay Name: Cytotoxicity against human MOLT4 cells after 2 days by sulforhodamine B assay
Assay type: functional
Settings: MOLT-4, 48 h
Listing of entries alongside the reported GI50.
Quantity Measured: GI50 (nM)

>  <Line Notation>
CC/C(=C(/c1ccc(OCCN(C)C)cc1)c1ccc(OC(=O)CCC(=O)C2=C(C)/C(=C/c3[nH]c(-c4ccc[nH]4)cc3OC)N=C2C)cc1)c1ccccc1

>  <Number>
980

$$$$
>  <Line Notation>
COc1cc(-c2ccc[nH]2)[nH]c1/C=C1\N=C(C)C(C(=O)CCC(=O)Oc2ccc3c(c2)CC[C@@H]2[C@@H]3CC[C@]3(C)C(=O)CC[C@@H]23)=C1C

>  <Number>
2720

$$$$
>  <Line Notation>
CC/C(=C(/c1ccc(OCCN(C)C)cc1)c1ccc(OC(=O)CCCCCCCCC(=O)C2=C(C)/C(=C/c3[nH]c(-c4ccc[nH]4)cc3OC)N=C2C)cc1)c1ccccc1

>  <Number>
5130

$$$$
>  <Line Notation>
CCC(=C(c1ccc(OCCN(C)C)cc1)c1ccc(OC(=O)CCCCC(=O)C2=C(C)/C(=C/c3[nH]c(-c4ccc[nH]4)cc3OC)N=C2C)cc1)c1ccccc1

>  <Number>
1740

$$$$

Data provenance is ChEMBL document CHEMBL2417509.
